- Tested on: Candida krusei K. 11655
- procedureText: In vitro antifungal activity, microbroth dilution MIC
- Format: cell-based
- conditionNotes: RPMI-1640, 35° C., 4 to 48 hours, no growth observed
reportedProperty: Minimal inhibitory concentration(MIC), C. krusei K. 11655

// returns reported Minimal inhibitory concentration(MIC), C. krusei K. 11655 for input Cc1cccc(C(=C(F)OCC2COC(Cn3cncn3)(c3ccc(Cl)cc3Cl)O2)C(F)(F)F)c1 (mixture of isomers) >100 µg/mL

// returns reported Minimal inhibitory concentration(MIC), C. krusei K. 11655 for input Cc1ccc(C=C(F)Oc2ccc(OCC3COC(Cn4ccnc4)(c4ccc(Cl)cc4Cl)O3)cc2)cc1 (mixture of isomers) 12.5 µg/mL

// returns reported Minimal inhibitory concentration(MIC), C. krusei K. 11655 for input COc1ccc(C=C(F)Oc2ccc(OCC3COC(Cn4ccnc4)(c4ccc(F)cc4F)O3)cc2)cc1 (mixture of isomers) >100 µg/mL

// returns reported Minimal inhibitory concentration(MIC), C. krusei K. 11655 for input FC(OCC1COC(Cn2cncn2)(c2ccc(Cl)cc2Cl)O1)=C(c1ccc(F)cc1)C(F)(F)F (mixture of isomers) >100 µg/mL

// returns reported Minimal inhibitory concentration(MIC), C. krusei K. 11655 for input FC(Oc1ccc(OCC2COC(Cn3ccnc3)(c3ccc(Cl)cc3Cl)O2)cc1)=C(c1cccc(F)c1)C(F)(F)F (mixture of isomers) >100 µg/mL

// returns reported Minimal inhibitory concentration(MIC), C. krusei K. 11655 for input Cc1ccc(C=C(F)OCC2COC(Cn3cncn3)(c3ccc(Cl)cc3Cl)O2)cc1 (mixture of isomers) 100 µg/mL

* * *

For each entry below, report its Minimal inhibitory concentration (MIC) value.
- Test system: Candida albicans C1-2
- procedureText: In vitro antifungal activity, microbroth dilution MIC
- Format: cell-based
- conditionNotes: C. albicans C1-2, RPMI-1640, 35° C., 4 to 48 hours
Please reply with the bare figure in µg/mL and do not write the unit itself.

// returns reported Minimal inhibitory concentration (MIC) for input FC(=Cc1ccc(Cl)cc1)OCC1COC(Cn2cncn2)(c2ccc(Cl)cc2Cl)O1 (mixture of isomers) [Ex. 76] 6.25

// returns reported Minimal inhibitory concentration (MIC) for input Cc1ccc(C(=C(F)OCC2COC(Cn3ccnc3)(c3ccc(Cl)cc3Cl)O2)C(F)(F)F)cc1C (centres unmarked) [Ex. 23] 6.25

// returns reported Minimal inhibitory concentration (MIC) for input COc1cccc(C(=C(F)OCC2COC(Cn3ccnc3)(c3ccc(F)cc3F)O2)C(F)(F)F)c1 (mixture of isomers) [Ex. 60] 12.5

// returns reported Minimal inhibitory concentration (MIC) for input Cc1cccc(C(=C(F)OCC2COC(Cn3ccnc3)(c3ccc(F)cc3F)O2)C(F)(F)F)c1 (mixture of isomers) [Ex. 53] 25.0

// returns reported Minimal inhibitory concentration (MIC) for input Cc1cccc(C(=C(F)OCC2COC(Cn3ccnc3)(c3ccc(Cl)cc3Cl)O2)C(F)(F)F)c1 (centres unmarked) [Ex. 20] 6.25

// returns reported Minimal inhibitory concentration (MIC) for input FC(=Cc1ccccc1)OC[C@H]1CO[C@](Cn2ccnc2)(c2ccc(Cl)cc2Cl)O1 (relative stereo) [Example 1] 25.0

// returns reported Minimal inhibitory concentration (MIC) for input Cc1cc(C)cc(C(=C(F)OCC2COC(Cn3ccnc3)(c3ccc(Cl)cc3Cl)O2)C(F)(F)F)c1 (centres unmarked) [Ex. 24] 6.25

// returns reported Minimal inhibitory concentration (MIC) for input Cc1cc(C)cc(C=C(F)OCC2COC(Cn3ccnc3)(c3ccc(F)cc3F)O2)c1 (mixture of isomers) [Ex. 41] 12.5

// returns reported Minimal inhibitory concentration (MIC) for input COc1cccc(C=C(F)OCC2COC(Cn3ccnc3)(c3ccc(Cl)cc3Cl)O2)c1 (centres unmarked) [Ex. 8] 25.0

// returns reported Minimal inhibitory concentration (MIC) for input Cc1cc(C)c(C=C(F)OCC2COC(Cn3ccnc3)(c3ccc(F)cc3F)O2)cc1C (mixture of isomers) [Ex. 42] 12.5

// returns reported Minimal inhibitory concentration (MIC) for input CCOc1ccc(C=C(F)OCC2COC(Cn3ccnc3)(c3ccc(Cl)cc3Cl)O2)cc1 (centres unmarked) [Ex. 10] 12.5

// returns reported Minimal inhibitory concentration (MIC) for input COc1ccc(C=C(F)OCC2COC(Cn3cncn3)(c3ccc(Cl)cc3Cl)O2)cc1 (mixture of isomers) [Ex. 74] 100

// returns reported Minimal inhibitory concentration (MIC) for input FC(OCC1COC(Cn2ccnc2)(c2ccc(F)cc2F)O1)=C(c1cc(Cl)cc(Cl)c1)C(F)(F)F (mixture of isomers) [Ex. 67] 12.5

// returns reported Minimal inhibitory concentration (MIC) for input FC(OCC1COC(Cn2ccnc2)(c2ccc(Cl)cc2Cl)O1)=C(c1cccc(Cl)c1)C(F)(F)F (centres unmarked) [Ex. 30] 25.0

// returns reported Minimal inhibitory concentration (MIC) for input FC(=Cc1cccc(F)c1)OCC1COC(Cn2ccnc2)(c2ccc(F)cc2F)O1 (mixture of isomers) [Ex. 48] 25.0

// returns reported Minimal inhibitory concentration (MIC) for input FC(OCC1COC(Cn2ccnc2)(c2ccc(Cl)cc2Cl)O1)=C(c1cccc(F)c1)C(F)(F)F (mixture of isomers) [Ex. 32] 6.25

// returns reported Minimal inhibitory concentration (MIC) for input COc1cccc(C(=C(F)OCC2COC(Cn3ccnc3)(c3ccc(Cl)cc3Cl)O2)C(F)(F)F)c1 (centres unmarked) [Example 26] 6.25

// returns reported Minimal inhibitory concentration (MIC) for input Cc1cc(C)c(C=C(F)OCC2COC(Cn3ccnc3)(c3ccc(Cl)cc3Cl)O2)cc1C (centres unmarked) [Ex. 7] 12.5

// returns reported Minimal inhibitory concentration (MIC) for input Cc1cc(C)cc(C=C(F)OCC2COC(Cn3cncn3)(c3ccc(Cl)cc3Cl)O2)c1 (mixture of isomers) [Ex. 73] 50.0

// returns reported Minimal inhibitory concentration (MIC) for input FC(OCC1COC(Cn2ccnc2)(c2ccc(F)cc2F)O1)=C(c1ccc(Oc2ccccc2)cc1)C(F)(F)F (mixture of isomers) [Ex. 63] 50.0

// returns reported Minimal inhibitory concentration (MIC) for input FC(OCC1COC(Cn2ccnc2)(c2ccc(F)cc2F)O1)=C(c1ccc(F)cc1)C(F)(F)F (mixture of isomers) [Ex. 66] 12.5

// returns reported Minimal inhibitory concentration (MIC) for input FC(OCC1COC(Cn2ccnc2)(c2ccc(F)cc2F)O1)=C(c1cccc(C(F)(F)F)c1)C(F)(F)F (mixture of isomers) [Ex. 58] 25.0

// returns reported Minimal inhibitory concentration (MIC) for input FC(OCC1COC(Cn2ccnc2)(c2ccc(Cl)cc2Cl)O1)=C(c1ccc2c(c1)OCO2)C(F)(F)F (centres unmarked) [Ex. 28] 25.0

// returns reported Minimal inhibitory concentration (MIC) for input CCc1ccc(C=C(F)OCC2COC(Cn3ccnc3)(c3ccc(Cl)cc3Cl)O2)cc1 (centres unmarked) [Ex. 4] 6.25

// returns reported Minimal inhibitory concentration (MIC) for input Cc1ccc(C=C(F)OCC2COC(Cn3ccnc3)(c3ccc(Cl)cc3Cl)O2)cc1 (centres unmarked) [Ex. 3] 25.0

// returns reported Minimal inhibitory concentration (MIC) for input CCc1ccc(C(=C(F)OCC2COC(Cn3ccnc3)(c3ccc(Cl)cc3Cl)O2)C(F)(F)F)cc1 (centres unmarked) [Ex. 22] 12.5

// returns reported Minimal inhibitory concentration (MIC) for input FC(OCC1COC(Cn2ccnc2)(c2ccc(Cl)cc2Cl)O1)=C(c1ccc(C(F)(F)F)cc1)C(F)(F)F (centres unmarked) [Ex. 25] 12.5

// returns reported Minimal inhibitory concentration (MIC) for input Cc1cccc(C=C(F)OCC2COC(Cn3ccnc3)(c3ccc(Cl)cc3Cl)O2)c1 (centres unmarked) [Ex. 2] 6.25

Values from patent US6376497B1
